- Tested on: Escherichia coli TOP10
- method-description: shrunken log2 fold change of peptide-encoding DNA abundance (4.5 h post-induction vs induction); higher = less antimicrobial activity (less host growth inhibition)
- test-settings: time post-induction: 4.5 h; library: site-saturation at positions 5, 18, 19, 20
reported-property: shrunken log2 fold change

>>> reading("RRIRTRPPRLPRPRPRPSTDPRP")
0.201
>>> reading("RRIRWRPPRLPRPRPRPNDYPRP")
-1.02
>>> reading("RRIRWRPPRLPRPRPRPDQMPRP")
0.128
>>> reading("RRIRVRPPRLPRPRPRPQIAPRP")
-0.0465
>>> reading("RRIRFRPPRLPRPRPRPVNTPRP")
-0.377
>>> reading("RRIRCRPPRLPRPRPRPMYPPRP")
-0.375
>>> reading("RRIRDRPPRLPRPRPRPHVIPRP")
-0.0856
>>> reading("RRIRQRPPRLPRPRPRPDAEPRP")
0.105
>>> reading("RRIRWRPPRLPRPRPRPLKCPRP")
0.0309
>>> reading("RRIRRRPPRLPRPRPRPCGQPRP")
0.205
>>> reading("RRIRGRPPRLPRPRPRPDQFPRP")
0.704
>>> reading("RRIRYRPPRLPRPRPRPHGTPRP")
-0.209
>>> reading("RRIRNRPPRLPRPRPRPYANPRP")
0.0782
>>> reading("RRIRFRPPRLPRPRPRPDHCPRP")
-0.0831
>>> reading("RRIRKRPPRLPRPRPRPLDWPRP")
0.474

====

- Test system: Escherichia coli TOP10
- method-description: shrunken log2 fold change of peptide-encoding DNA abundance (4.5 h post-induction vs induction); higher = less antimicrobial activity (less host growth inhibition)
- test-settings: time post-induction: 4.5 h; library: site-saturation at positions 5, 18, 19, 20
// reported shrunken log2 fold change per item
reported-property: shrunken log2 fold change

>>> reading("RRIRMRPPRLPRPRPRPQTMPRP")
0.276
>>> reading("RRIRERPPRLPRPRPRPFYQPRP")
-0.0388
>>> reading("RRIRLRPPRLPRPRPRPDWLPRP")
0.318
>>> reading("RRIRLRPPRLPRPRPRPRAFPRP")
0.25
>>> reading("RRIRDRPPRLPRPRPRPMNKPRP")
-0.381
>>> reading("RRIRMRPPRLPRPRPRPHNSPRP")
-0.171
>>> reading("RRIRMRPPRLPRPRPRPCCHPRP")
0.0146
>>> reading("RRIRKRPPRLPRPRPRPMEGPRP")
-0.01
>>> reading("RRIRNRPPRLPRPRPRPHRWPRP")
0.0666
>>> reading("RRIRRRPPRLPRPRPRPGWYPRP")
0.205
>>> reading("RRIRERPPRLPRPRPRPCYWPRP")
-0.361
>>> reading("RRIRSRPPRLPRPRPRPIMMPRP")
-0.0828
>>> reading("RRIRKRPPRLPRPRPRPDRRPRP")
0.18
>>> reading("RRIRARPPRLPRPRPRPFTQPRP")
-0.0692
>>> reading("RRIRDRPPRLPRPRPRPECDPRP")
1.39
>>> reading("RRIRERPPRLPRPRPRPICQPRP")
0.00158
>>> reading("RRIRLRPPRLPRPRPRPNDIPRP")
-0.723
>>> reading("RRIRLRPPRLPRPRPRPLGNPRP")
0.102
>>> reading("RRIRYRPPRLPRPRPRPNENPRP")
-0.744
>>> reading("RRIRERPPRLPRPRPRPHQRPRP")
0.0138
>>> reading("RRIRMRPPRLPRPRPRPVVPPRP")
-0.107
>>> reading("RRIRTRPPRLPRPRPRPKASPRP")
-0.0647
>>> reading("RRIRYRPPRLPRPRPRPEYTPRP")
-0.542
>>> reading("RRIRDRPPRLPRPRPRPQMRPRP")
-0.0122
>>> reading("RRIRRRPPRLPRPRPRPSIEPRP")
-0.232
>>> reading("RRIRWRPPRLPRPRPRPTAHPRP")
0.306
>>> reading("RRIRNRPPRLPRPRPRPVKSPRP")
0.00699
>>> reading("RRIRTRPPRLPRPRPRPWMMPRP")
0.0505
>>> reading("RRIRKRPPRLPRPRPRPFIAPRP")
-0.0583
>>> reading("RRIRVRPPRLPRPRPRPGGVPRP")
0.224
>>> reading("RRIRYRPPRLPRPRPRPCIEPRP")
-0.0017
>>> reading("RRIRMRPPRLPRPRPRPFNYPRP")
-0.559

====

- System: Escherichia coli TOP10
- method-description: shrunken log2 fold change of peptide-encoding DNA abundance (4.5 h post-induction vs induction); higher = less antimicrobial activity (less host growth inhibition)
- test-settings: time post-induction: 4.5 h; library: site-saturation at positions 5, 18, 19, 20
# label = label 1 if shrunken log2 fold change >= -0.1 else label 0

>>> class_label("RRIRNRPPRLPRPRPRPSIFPRP")
"label 0"
>>> class_label("RRIRERPPRLPRPRPRPREEPRP")
"label 1"
>>> class_label("RRIRTRPPRLPRPRPRPIIHPRP")
"label 0"
>>> class_label("RRIRHRPPRLPRPRPRPVQRPRP")
"label 1"
>>> class_label("RRIRPRPPRLPRPRPRPWHFPRP")
"label 0"
>>> class_label("RRIRGRPPRLPRPRPRPTWVPRP")
"label 1"
>>> class_label("RRIRPRPPRLPRPRPRPSKRPRP")
"label 1"
>>> class_label("RRIRIRPPRLPRPRPRPMLRPRP")
"label 0"

====

// reported shrunken log2 fold change per item
- Tested on: Escherichia coli TOP10
- method-description: shrunken log2 fold change of peptide-encoding DNA abundance (4.5 h post-induction vs induction); higher = less antimicrobial activity (less host growth inhibition)
- test-settings: time post-induction: 4.5 h; library: site-saturation at positions 5, 18, 19, 20
reported-property: shrunken log2 fold change

>>> reading("RRIRSRPPRLPRPRPRPPFKPRP")
0.0589
>>> reading("RRIRLRPPRLPRPRPRPQRHPRP")
-0.0803
>>> reading("RRIRNRPPRLPRPRPRPCFFPRP")
-0.489
>>> reading("RRIRPRPPRLPRPRPRPKLPPRP")
0.298
>>> reading("RRIRYRPPRLPRPRPRPYGCPRP")
-0.143
>>> reading("RRIRSRPPRLPRPRPRPRYFPRP")
-0.0823
>>> reading("RRIRLRPPRLPRPRPRPYLVPRP")
-1.06
>>> reading("RRIRQRPPRLPRPRPRPCRQPRP")
0.0342
>>> reading("RRIRQRPPRLPRPRPRPSIVPRP")
-0.323
>>> reading("RRIRHRPPRLPRPRPRPTWPPRP")
0.25
>>> reading("RRIRIRPPRLPRPRPRPRDMPRP")
-0.902
>>> reading("RRIRHRPPRLPRPRPRPGMSPRP")
-0.0653
>>> reading("RRIRNRPPRLPRPRPRPKVKPRP")
-0.196
>>> reading("RRIRGRPPRLPRPRPRPSVGPRP")
0.333
>>> reading("RRIRYRPPRLPRPRPRPRPIPRP")
-0.0521
>>> reading("RRIRSRPPRLPRPRPRPMKLPRP")
-0.0255
>>> reading("RRIRSRPPRLPRPRPRPGYRPRP")
-0.0248
>>> reading("RRIRERPPRLPRPRPRPGYSPRP")
-0.00468
>>> reading("RRIRDRPPRLPRPRPRPWGSPRP")
-0.0321
>>> reading("RRIRKRPPRLPRPRPRPHGQPRP")
-0.0371
>>> reading("RRIRMRPPRLPRPRPRPTDMPRP")
0.0845
>>> reading("RRIRFRPPRLPRPRPRPIVKPRP")
-0.395
>>> reading("RRIRNRPPRLPRPRPRPDPAPRP")
0.172
>>> reading("RRIRTRPPRLPRPRPRPCVQPRP")
0.0274
>>> reading("RRIRLRPPRLPRPRPRPAPHPRP")
0.514
>>> reading("RRIRQRPPRLPRPRPRPCYCPRP")
-0.338
>>> reading("RRIRFRPPRLPRPRPRPLSRPRP")
-0.102
>>> reading("RRIRVRPPRLPRPRPRPDLRPRP")
-0.0613
>>> reading("RRIRARPPRLPRPRPRPTIDPRP")
0.301
>>> reading("RRIRERPPRLPRPRPRPVKWPRP")
-0.129
>>> reading("RRIRTRPPRLPRPRPRPWYVPRP")
-0.275
>>> reading("RRIRRRPPRLPRPRPRPLEYPRP")
-0.326

====

// reported shrunken log2 fold change per item
- Tested on: Escherichia coli TOP10;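 further: peptides expressed intracellularly from a pBAD plasmid library in pooled LB shake-flask culture, induced with 0.3% L-arabinose, DNA abundance read by NGS, three biological replicates, DESeq2 with apeglm shrinkage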
- method-description: shrunken log2 fold change of peptide-encoding DNA abundance (4.5 h post-induction vs induction); higher = less antimicrobial activity (less host growth inhibition)
- test-settings: time post-induction: 4.5 h; library: site-saturation at positions 5, 18, 19, 20
reported-property: shrunken log2 fold change

>>> reading("RRIRHRPPRLPRPRPRPPAYPRP")
0.181
>>> reading("RRIRSRPPRLPRPRPRPTYEPRP")
-0.328
>>> reading("RRIRLRPPRLPRPRPRPHNCPRP")
-0.192
>>> reading("RRIRERPPRLPRPRPRPAIQPRP")
-0.337
>>> reading("RRIRIRPPRLPRPRPRPSAIPRP")
-0.0599
>>> reading("RRIRLRPPRLPRPRPRPFYPPRP")
-0.504
>>> reading("RRIRERPPRLPRPRPRPNTWPRP")
0.0226
>>> reading("RRIRYRPPRLPRPRPRPMYEPRP")
-0.101
>>> reading("RRIRQRPPRLPRPRPRPLEVPRP")
-0.0417
>>> reading("RRIRIRPPRLPRPRPRPEHRPRP")
-0.051
>>> reading("RRIRNRPPRLPRPRPRPPTCPRP")
-0.221
>>> reading("RRIRFRPPRLPRPRPRPDDGPRP")
-0.0366
>>> reading("RRIRPRPPRLPRPRPRPWFFPRP")
-0.185
>>> reading("RRIRVRPPRLPRPRPRPAGSPRP")
0.29
>>> reading("RRIRPRPPRLPRPRPRPTATPRP")
0.425
>>> reading("RRIRMRPPRLPRPRPRPHLTPRP")
-0.0375
>>> reading("RRIRARPPRLPRPRPRPLEVPRP")
0.676
>>> reading("RRIRTRPPRLPRPRPRPTMFPRP")
-0.148
>>> reading("RRIRFRPPRLPRPRPRPVCDPRP")
-0.255
>>> reading("RRIRMRPPRLPRPRPRPYTTPRP")
-0.335
>>> reading("RRIRTRPPRLPRPRPRPETYPRP")
-0.275
>>> reading("RRIRTRPPRLPRPRPRPDHDPRP")
0.0257
>>> reading("RRIRCRPPRLPRPRPRPHNWPRP")
-0.00871
>>> reading("RRIRFRPPRLPRPRPRPKCDPRP")
-0.136
>>> reading("RRIRSRPPRLPRPRPRPPGNPRP")
-0.0179
>>> reading("RRIRSRPPRLPRPRPRPYQDPRP")
0.0107
>>> reading("RRIRFRPPRLPRPRPRPDMAPRP")
-0.108
>>> reading("RRIRFRPPRLPRPRPRPNTEPRP")
-0.479
>>> reading("RRIRTRPPRLPRPRPRPMDKPRP")
-0.528
>>> reading("RRIRPRPPRLPRPRPRPNLEPRP")
-0.0337
>>> reading("RRIRARPPRLPRPRPRPNDAPRP")
-0.0891
>>> reading("RRIRMRPPRLPRPRPRPREIPRP")
1.35
